Each recorded value in this set is attributed to the nanobody polyreactivity screen of Harvey et al. (2022).

Assay comment: yeast display, Sf9 membrane polyspecificity reagent, FACS + sequencing; frameworks hold sequencing errors
Assay metric: polyreactivity (PSR sort gate)

Solved cases below.
q: Item QVQLVESRGGLLQAGGSLRLSCAASGSIFKYYSMGSYRQAPGKERELVAAIRWSGGTTYYADSVKGRFTISRDNAKNTVYLQMNSLKPEDTAVYYCAAEYFNQNTREGYDYWGQGSQVTVSS has what recorded polyreactivity (PSR sort gate)?
a: low polyreactivity

q: Item QVQLVESGGGLVQAGGSLRLSCAASGRTFGWNARGWYRQAPGKEKELVAAISWSGTNTYYADSVKGRFTISRDNAKNTVYLQMNSLKPEDTAVYYCAARDWTGSWNGYWSCEYNYWGQGTQVTGSS has what recorded polyreactivity (PSR sort gate)?
a: low polyreactivity

q: Item QVQLVESGGGLVQAGGSLRLSCAATRRTFYSYAMGWYRQAPGKESELLASITSTGSTYYADSVKGRFTISRDNAKNTVYLQMNSLKPEDTAVYYCAARRQPRYSQRSTYYYWGQGTQVTVSS has what recorded polyreactivity (PSR sort gate)?
a: high polyreactivity

q: Item QVQLVESGGGLVQAGGSLRLSCAASGSILSAYAMGWSRQAPGKERELVAAISWSGGSTYYADSVKGRFTISRDNAKNTVYLQMNSLKPEDTAVYYCATVNKKWRRYDYWGQGTQVTVSS has what recorded polyreactivity (PSR sort gate)?
a: high polyreactivity

q: Item QVQLVESGGGLVQAGGSLRLSCAASGLTFGANDMGWYRQAPGKERELVAAIDWSGGSTFYADSVKGRFTISRDNAKNTVYLQMNSLKPEDTAVYYCAALGFGYPYPEYDYWGQGTQVTVSS has what recorded polyreactivity (PSR sort gate)?
a: low polyreactivity

q: Item QVQLVESGGGLVQAGGSLRLSCAASGFTFWAYAMGWYRQAPGKETELVAAISKTGGRTYYADSVKGRFTISRDNAKNTVYLQMISLKPEDTAVYYCAVDITGLYYPVDYWGQGTQVTVSS has what recorded polyreactivity (PSR sort gate)?
a: high polyreactivity

More entries:
q: Item QDQLVESGGGLVQAGGSLRLSCAASGLSFASYVMGWYRQAPGKERELVAAISSSGDSTYYADSVKGRFTLSRDNAKNTVYLQMNSLKPEDTAVYYCAAKDYVWGQGTQVTVSS has what recorded polyreactivity (PSR sort gate)?
a: low polyreactivity

q: Item QVQLVESVGGLVQAGGSLRLSCAASGSTFYTYDMGWYRQAPGKERELVAAISRRDGITYYADSVKGRFTISRDNAKNTVYLQMNILKPEYTAVYYCAAEDAYLYYDFDYWGQGTQVTVSS has what recorded polyreactivity (PSR sort gate)?
a: low polyreactivity

q: Item QVQLVESGGGLVQAGGSLRLSCAASGFTLTPYAMGWYRQAPGKERELVAAITYTGGSTYYADSVKGRFTISRDNAKNTVYLQMNSLKPEDTAVYYCAAEFLSVPYDYCYWGQGTQVTVSS has what recorded polyreactivity (PSR sort gate)?
a: high polyreactivity

q: Item QVQLVESGGGLVQAGGSLRLSCAASGRIFTPYAMGWYRQAPGKERELVAVIRDGSTYYADSVKGRFTISRDNAKNTVYIQMNSLKPEDTAVYYCRYDIWVWWSGAYDYWGQGTQVTVSS has what recorded polyreactivity (PSR sort gate)?
a: low polyreactivity

q: Item QVQLVESGGGLVQAGGSLRLSCAASGLIFGPYAVGWYRQAPGKERELVAGISRGGSTYYADSVKGRFTISRDNAKKTVYLQMNSLKPEDTAVYYCAASRRYRGVNRPGDYWGQGTQVTVSS has what recorded polyreactivity (PSR sort gate)?
a: high polyreactivity

q: Item QVQLVESGGGLVQAGGSLRLSCAASGSIFYVYAMGWYRQAPGKERELVAAISWRGGSTYYADSVKGRFTISRDIAKITVYLQMNSLKPEDTAVYYCNADWSFWGQGTQVTVSS has what recorded polyreactivity (PSR sort gate)?
a: high polyreactivity

q: Item QVQLVESGGGLVQAGGSLRLSCAASGLIFLYYAMGWNRQAPGKERELVAAIRTNYADSVKGRFTISRDNAKNTVYLQMNSLKPEDTPVYYCAAESCQTPTSAFDYWGQGTQVTVSS has what recorded polyreactivity (PSR sort gate)?
a: low polyreactivity

q: Item QVQLEESGGGLVQAGGSLRLSCAASGFTFVSYAMGWYRQAPGKERELVAAISRRGGRTYYADSVKGRFTISRDNAKNTVYLQMNSLKPEDTAVYYCNKDYYGSPSSYYWYDYWGQGTQVTVSS has what recorded polyreactivity (PSR sort gate)?
a: high polyreactivity

q: Item QVQLVESGGGLVQAGGSLRLSCAASGRIFSIYAMGWYRQAPGKERELVAAIRSRGGRTHYADSVKVRFTISRDNAKNTVYLQMNSLKPEDTAVYFCNAKYFSGDNYWGQGTQVTVSS has what recorded polyreactivity (PSR sort gate)?
a: high polyreactivity

q: Item QVQLVDSGGGLVQAGGSLRLSSPASGFIIGLYAMGWYRQEPGKERELVAAISTSSGITYYADSVKGRFTISRDNAKNSVYLQMNSLKPEDTAVYYCAARGHYYDFCGQGTQVTVSS has what recorded polyreactivity (PSR sort gate)?
a: low polyreactivity

q: Item QVHLVESGGGLVQAGGSLRLSCAASGRTLGGNAMGWYRQAPGKERELDAAITNSASTYADSVKGRFTISRDNAKNTVYLQMNSLKPEDTAVYYCNAPDPSDQHGDYWGQGTQVTVSS has what recorded polyreactivity (PSR sort gate)?
a: low polyreactivity

q: Item QVQLVESVGGLVQAGGSLSLRCAASGLISRRNAMGWYRQAPGKERELVAAISTGSSTNYADSVKGRFTISRDNAKNTVYLQMNSLKTEDTAFYYCATDYLAGAPCEGHVEREYDYWGQGTQVTVSS has what recorded polyreactivity (PSR sort gate)?
a: low polyreactivity

q: Item QVQLVESGGGLVQAGGSLRLSCAASGSIFDSYAMGWYRPEPGKERELVAAISSGGSTNYADSVKGRFTISRDNEKNTVYLQMNSLKPEDTAVYYCAADGSLDAYNYWGQGTQVTVSS has what recorded polyreactivity (PSR sort gate)?
a: low polyreactivity

q: Item QVQLVESGGGLVQAGGSLRLSCAASGRTFGNYAMGWYRQAPGKERELVAAITSAGRTYYADSVKGRFTISRDNAKNTVYLQMNSLKPEDTAVYYCNANRVSPYYWGQGTQVTVSS has what recorded polyreactivity (PSR sort gate)?
a: low polyreactivity

q: Item QVQLVESGGGLVQAAGSLRLSCAASGLTFYYYAMGWYRQAPGKERELVAGISGSDGSTYYADSVNGRFTISRDNAKNSVYLQMNSLTPEDTAVYYCAAEYYYAWPLYYITDGIYDMYYWGQGTQVTVSS has what recorded polyreactivity (PSR sort gate)?
a: low polyreactivity
